List of remaining activity at 10 µM values.
assayed_system: human GnRH receptor (Homo sapiens, UniProt P30968)
Construct: The cDNA for the human GnRH receptor is cloned into the plasmid expression vector, pcDNA 3; expressed in transfected cells; host or cells: HEK 293 cells, stably transfected (pcDNA 3); membrane preparation
Sequence (P30968 1-328): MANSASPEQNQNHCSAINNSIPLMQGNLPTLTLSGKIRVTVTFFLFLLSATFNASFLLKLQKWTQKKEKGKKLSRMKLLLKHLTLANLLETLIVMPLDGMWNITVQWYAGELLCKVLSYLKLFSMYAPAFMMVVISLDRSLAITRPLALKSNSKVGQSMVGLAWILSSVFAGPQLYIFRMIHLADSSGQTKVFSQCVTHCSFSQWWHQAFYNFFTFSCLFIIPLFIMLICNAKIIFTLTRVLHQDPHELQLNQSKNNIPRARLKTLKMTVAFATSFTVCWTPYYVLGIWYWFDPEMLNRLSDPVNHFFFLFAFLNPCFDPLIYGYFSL
method_description: GnRH receptor competitive radioligand binding assay (125I-GnRH-A, HEK 293 cell membranes)
condition_info: compound at 10 μM; average of 1st and 2nd test; read-out: Average % Remaining (percent of specific binding remaining)
Procedure: The cDNA for the human GnRH receptor is cloned into the plasmid expression vector, pcDNA 3 (In Vitrogen), and stably transfected in HEK 293 cells (a cell line developed by Dr. Stuart Sealfon, Mount Sinai Medical School, New York, N.Y.). […] The radioiodinated agonist analog of GnRH, [des-Gly^10, D-Ala^8]GnRH ethylamide (GnRH-A), is used as the labeled ligand. […] Fractions are assessed for biological activity by radioligand binding. […]
Entry rule: numbers only, all in %.

Recorded results for 3 molecules are shown here.
- molecule: "N=C(N)NCc1ccc(CN(CC23CC=CCC2C2CC=CCC2O3)C(=O)c2ccc3ccccc3c2)cc1 (stereo not shown)"
  experimental_readout: "remaining activity at 10 µM"
  unit: "%"
  value_reported: 37
- molecule: "Cc1cc2c(cc1CN(Cc1ccc(CNC(=N)N)cc1)C(=O)c1ccccc1)C(C)(C)CCC2(C)C"
  experimental_readout: "remaining activity at 10 µM"
  unit: "%"
  value_reported: 55
- molecule: "CC(C)(C)c1ccc(CN(CCCCNC(=N)N)C(=O)c2ccc3ccccc3c2)cc1"
  experimental_readout: "remaining activity at 10 µM"
  unit: "%"
  value_reported: 56

Req: For the molecule `N=C(N)NCc1ccc(CN(Cc2ccc(OCc3ccccc3)c(OCc3ccccc3)c2)C(=O)c2ccccc2)cc1` , what remaining activity at 10 µM is on record?
Resp: 45

###

assayed_system: human GnRH receptor (Homo sapiens, UniProt P30968)
Construct: The cDNA for the human GnRH receptor is cloned into the plasmid expression vector, pcDNA 3; expressed in transfected cells; host or cells: HEK 293 cells, stably transfected (pcDNA 3); membrane preparation
Sequence (P30968 1-328): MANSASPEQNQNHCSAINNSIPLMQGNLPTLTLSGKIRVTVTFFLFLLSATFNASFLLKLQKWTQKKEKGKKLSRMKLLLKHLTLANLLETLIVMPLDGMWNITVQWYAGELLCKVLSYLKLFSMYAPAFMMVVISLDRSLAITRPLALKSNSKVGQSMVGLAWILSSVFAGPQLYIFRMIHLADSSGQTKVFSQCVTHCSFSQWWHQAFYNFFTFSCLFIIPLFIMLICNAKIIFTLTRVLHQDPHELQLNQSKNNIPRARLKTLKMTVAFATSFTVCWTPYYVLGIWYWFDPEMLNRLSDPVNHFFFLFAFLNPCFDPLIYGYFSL
method_description: GnRH receptor competitive radioligand binding assay (125I-GnRH-A, HEK 293 cell membranes)
condition_info: compound at 10 μM; crude compounds; 125I-GnRH-A; lower value = higher inhibition; read-out: % Remaining 1st Test (percent of specific binding remaining)
experimental_readout: remaining activity at 10 µM

Recorded results for 10 molecules are shown here.
- molecule: "N=C(N)NCc1ccc(CN(Cc2ccc(OCc3ccccc3)c(OCc3ccccc3)c2)C(=O)c2ccccc2)cc1"
  remaining activity at 10 µM: "47%"
- molecule: "Cc1cc2c(cc1CN(CC1CCC(CNC(=N)N)CC1)C(=O)c1ccc([N+](=O)[O-])o1)C(C)(C)CCC2(C)C (stereo not drawn)"
  remaining activity at 10 µM: "50%"
- molecule: "Cc1cc2c(cc1CN(Cc1ccc(CNC(=N)N)cc1)C(=O)c1ccc(Cl)nc1)C(C)(C)CCC2(C)C"
  remaining activity at 10 µM: "50%"
- molecule: "Cc1cc2c(cc1CN(CCCCNC(=N)N)C(=O)c1ccco1)C(C)(C)CCC2(C)C"
  remaining activity at 10 µM: "29%"
- molecule: "N=C(N)NCC1CCCC(CN(Cc2cnc3ccccc3c2)C(=O)c2ccc3ccccc3c2)C1 (stereo not drawn)"
  remaining activity at 10 µM: "48%"
- molecule: "Cc1cc2c(cc1CN(CCCCNC(=N)N)C(=O)C1CCCCC1)C(C)(C)CCC2(C)C"
  remaining activity at 10 µM: "56%"
- molecule: "CN(C)CCCOc1ccc(CN(Cc2cccc(CNC(=N)N)c2)C(=O)c2ccc3ccccc3c2)cc1"
  remaining activity at 10 µM: "56%"
- molecule: "Cc1cc2c(cc1CN(CC1CCCC(CNC(=N)N)C1)C(=O)C1CCCCC1)C(C)(C)CCC2(C)C (stereo not drawn)"
  remaining activity at 10 µM: "57%"
- molecule: "Cc1cc2c(cc1CN(CCCCNC(=N)N)C(=O)c1ccc(Cl)nc1)C(C)(C)CCC2(C)C"
  remaining activity at 10 µM: "52%"
- molecule: "CC(C)(C)c1ccc(CN(CC2CCC(CNC(=N)N)CC2)C(=O)c2cc3ccccc3s2)cc1 (stereo not drawn)"
  remaining activity at 10 µM: "49%"

Req: Fill in the recorded remaining activity at 10 µM for this molecule, with human GnRH receptor (Homo sapiens, UniProt P30968) as test system: `N=C(N)NCCCCN(Cc1ccc(OCc2ccccc2)c(OCc2ccccc2)c1)C(=O)c1cccc2ccccc12`
Resp: 45%

Req: Fill in the recorded remaining activity at 10 µM for this molecule, with human GnRH receptor (Homo sapiens, UniProt P30968) as test system: CCOc1cc(OCC)c(OCC)cc1CN(CC1CCC(CNC(=N)N)CC1)C(=O)c1ccco1 (stereo not drawn)
Resp: 57%

Req: Fill in the recorded remaining activity at 10 µM for this molecule, with human GnRH receptor (Homo sapiens, UniProt P30968) as test system: N=C(N)NCc1ccc(CN(CC23CC=CCC2C2CC=CCC2O3)C(=O)c2cccs2)cc1 (stereo not drawn)
Resp: 47%

Req: Fill in the recorded remaining activity at 10 µM for this molecule, with human GnRH receptor (Homo sapiens, UniProt P30968) as test system: N=C(N)NCc1ccc(CN(CC23CC=CCC2C2CC=CCC2O3)C(=O)c2ccc3ccccc3c2)cc1 (stereo not drawn)
Resp: 31%

Req: Fill in the recorded remaining activity at 10 µM for this molecule, with human GnRH receptor (Homo sapiens, UniProt P30968) as test system: N=C(N)NCC1CCC(CN(Cc2cccc(Oc3ccc(Cl)cc3)c2)C(=O)C2CCCC2)CC1 (stereo not drawn)
Resp: 48%

###

assayed_system: human GnRH receptor (Homo sapiens, UniProt P30968)
Construct: The cDNA for the human GnRH receptor is cloned into the plasmid expression vector, pcDNA 3; expressed in transfected cells; host or cells: HEK 293 cells, stably transfected (pcDNA 3); membrane preparation
method_description: GnRH receptor competitive radioligand binding assay (125I-GnRH-A, HEK 293 cell membranes)
condition_info: compound at 10 μM; average of 1st and 2nd test; read-out: Average % Remaining (percent of specific binding remaining)
Could you please mark fulfilled for values of remaining activity at 10 µM below 50% and not fulfilled for values at or above it?

Past entries and their recorded results:
- molecule: "N=C(N)NCCCCN(CC12CC=CCC1C1CC=CCC1O2)C(=O)c1cccc2ccccc12 (stereo not shown) [Compound 25]"
  class_label: "fulfilled"
- molecule: "CC(C)(C)c1ccc(CN(Cc2ccc(CNC(=N)N)cc2)C(=O)c2cccc3ccccc23)cc1 [Compound 1]"
  class_label: "not fulfilled"
- molecule: "Cc1cc2c(cc1CN(CC1CCC(CNC(=N)N)CC1)C(=O)Cc1ccccc1)C(C)(C)CCC2(C)C (stereo not shown) [Compound 102]"
  class_label: "not fulfilled"
- molecule: "Cc1cc2c(cc1CN(CC1CCCC(CNC(=N)N)C1)C(=O)c1ccc(Cl)nc1)C(C)(C)CCC2(C)C (stereo not shown) [Compound 58]"
  class_label: "not fulfilled"

Req: Threshold test, remaining activity at 10 µM < 50%: Cc1cc2c(cc1CN(CC1CCC(CNC(=N)N)CC1)C(=O)c1c(C)noc1C)C(C)(C)CCC2(C)C (stereo not shown) [Compound 96]
Resp: not fulfilled

###

assayed_system: human GnRH receptor (Homo sapiens)
Construct: The cDNA for the human GnRH receptor is cloned into the plasmid expression vector, pcDNA 3; expressed in transfected cells; host or cells: HEK 293 cells, stably transfected (pcDNA 3); membrane preparation
method_description: GnRH receptor competitive radioligand binding assay (125I-GnRH-A, HEK 293 cell membranes)
condition_info: compound at 10 μM; average of 1st and 2nd test; read-out: Average % Remaining (percent of specific binding remaining)
List of remaining activity at 10 µM values.
Entry rule: numbers only, all in %.

- compound: "Cc1cc2c(cc1CN(CC1CCC(CNC(=N)N)CC1)C(=O)COCc1ccccc1)C(C)(C)CCC2(C)C (stereo not shown)"
  assayed_system: "human GnRH receptor (Homo sapiens)"
  unit: "%"
  remaining activity at 10 µM: 27
- compound: "N=C(N)NCc1ccc(CN(CC23CC=CCC2C2CC=CCC2O3)C(=O)c2ccccc2)cc1 (stereo not shown)"
  assayed_system: "human GnRH receptor (Homo sapiens)"
  unit: "%"
  remaining activity at 10 µM: 45
- compound: "CC(=O)N(Cc1ccc(CNC(=N)N)cc1)Cc1ccc(OCc2ccccc2)c(OCc2ccccc2)c1"
  assayed_system: "human GnRH receptor (Homo sapiens)"
  unit: "%"
  remaining activity at 10 µM: 49
- compound: "N=C(N)NCc1ccc(CN(CC23CC=CCC2C2CC=CCC2O3)C(=O)c2ccc(Cl)nc2)cc1 (stereo not shown)"
  assayed_system: "human GnRH receptor (Homo sapiens)"
  unit: "%"
  remaining activity at 10 µM: 52
- compound: "CC(C)(C)c1ccc(CN(CC2CCC(CNC(=N)N)CC2)C(=O)c2cc3ccccc3s2)cc1 (stereo not shown)"
  assayed_system: "human GnRH receptor (Homo sapiens)"
  unit: "%"
  remaining activity at 10 µM: 52

Req: For the compound Cc1cc(C(=O)N(Cc2cc3c(cc2C)C(C)(C)CCC3(C)C)CC2CCC(CNC(=N)N)CC2)n(C(C)(C)C)n1 (stereo not shown) , what remaining activity at 10 µM is on record?
Resp: 56

Req: For the compound CC(C)(C)c1ccc(CN(CC2CCCC(CNC(=N)N)C2)C(=O)c2ccc3ccccc3c2)cc1 (stereo not shown) , what remaining activity at 10 µM is on record?
Resp: 58

Req: For the compound N=C(N)NCc1ccc(CN(CC23CC=CCC2C2CC=CCC2O3)C(=O)c2cccc3ccccc23)cc1 (stereo not shown) , what remaining activity at 10 µM is on record?
Resp: 40
